system: SW-620 colon; experiment: NCI tumour cell line growth inhibition, 48 h
ATTRIBUTE_MEASURED: TGI

Noted for O=C(c1ccccc1)c1ccc2[nH]c(-c3c(Cl)c(Cl)c(Cl)c(Cl)c3C(=O)N/N=C/c3cccc(Oc4ccccc4)c3)nc2c1 : its TGI reads > 100 µM

Record CC1=C(O)C(=O)C2C(=O)C1C1Cc3ccccc3C21 (stereo not drawn) . Reported TGI: > 100 µM

Looking up COC(=O)C(C(=O)C(=O)Nc1ccc([N+](=O)[O-])cc1[N+](=O)[O-])c1nc2ccc(Cl)cc2[nH]c1=O (stereo not drawn) , I see its TGI listed as > 100 µM

Measured TGI of O=C1C(=O)N(c2cccc(C(F)(F)F)c2)C(=S)N1c1ccccc1 : > 100 µM

Input COCc1cc(C(=O)Nc2cc([C@H]3CC[C@@H](OC(=O)NC(C)C)C3)[nH]n2)n(C)n1 . Output TGI: 74.7 µM

Query COc1cccc(NC(=O)c2sc3nc(C)c(C(O)c4ccccc4)cc3c2N)c1 (stereo not drawn) yields TGI of 27.1 µM

Form: compound = CC(C)=CCC[C@](C)(O)[C@H]1CC[C@]2(C)[C@@H]1CC[C@@H]1[C@@]3(C)CC/C(=N/O)C(C)(C)[C@@H]3CC[C@]12C ; TGI = > 100 µM

The value of TGI measured for the compound O=C1CSC(c2ccccc2[N+](=O)[O-])N1c1ccc(-c2ccc(-n3c(-c4ccccc4)nc4ccccc4c3=O)cc2)cc1 (stereo not drawn) turned out to be > 100 µM

TGI measured on CC(C)=CCC/C(C)=C/CC/C(C)=C/CC/C(C)=C/CC/C(C)=C/CC/C(C)=C/CC/C(C)=C/CC/C(C)=C/CC/C(C)=C/CO = > 100 µM

Sample COC(=O)c1cccn1C(=O)n1cccc1 ; TGI observed: > 100 µM

Briefly, TGI measured for O=c1[nH]c(=S)[nH]c2c1CN(CCCN1CCOCC1)CN2 : > 100 µM

The reported TGI of the compound COc1ccc(/C=C2\CCS(=O)(=O)c3ccccc3C2=O)cc1 was 49.1 µM

Documented TGI of Cn1c2c(c3ccc([N+](=O)[O-])cc3c1=O)C(=O)c1ccccc1-2 : > 100 µM

According to the records, this compound CC(Nc1ccc(S(=O)(=O)N=C(N)N)cc1)c1c2ccccc2nc2ccccc12 (stereo not drawn) displays TGI of > 100 µM

The compound CCOC(=O)c1cc2/c(=C\c3ccc(N(C)C)cc3)c3ccccc3n2[n+]1C showed TGI equal to 13.1 µM

The recorded TGI for entry Cn1c(=O)c2c(nc3n2CCCC(=O)N3CC(O)CCl)n(C)c1=O (stereo not drawn) equals > 100 µM

TGI measured on CCOC(=O)c1cc2c(cc1Cl)SC(N(c1ccc(OC)cc1)S(=O)(=O)c1ccc(Cl)cc1)=NS2(=O)=O = 72.8 µM

Given item CCC(=C/[C@H](C)C/C=C/C(C)=C/[C@@H](C)C(=O)[C@@H](C)[C@H](O)[C@@H](C)CC)/C=C/[C@@H]1OC(=O)C=C[C@H]1C , the value recorded as its TGI is 1.43 µM
